The reported numbers originate from patent US20040053822A1.

Assayed target: HLA-A*1101 (human)
Procedure summary: competition with 125I probe peptide, purified HLA
Settings: remark: other sources report otherwise
Reported IC50 values for the following binders.

Binder	IC50 (nM)
LVHFLLLK [MAGE2/3.116 8-mer LVHFLLLK]	40
YVFPVIFSK [MAGE3.138.V2 …]	3
